- Test system: L-type calcium channel (Mus musculus)
- Experiment notes: In vitro inhibition of L-type calcium channels in AtT-20 cells.
- Setup conditions: att20
pIC50: −log10 of the molar value.
Measurement label: pIC50

Asked: Look up and state reported pIC50 for `O=C(N[C@@H](CSCC1CCCCC1)C(=O)NCc1ccc(Oc2ccccc2)cc1)[C@@H]1CSCN1`
Given back: 5.70

Asked: Look up and state reported pIC50 for `COCCN1CSC[C@H]1C(=O)N[C@@H](CSCC1CCCCC1)C(=O)NCc1ccc(Oc2ccccc2)cc1`
Given back: 6.22

Asked: Look up and state reported pIC50 for `CN(C)c1ccc(CNC(=O)[C@H](CSCC2CCCCC2)NC(=O)[C@@H]2CSCN2C(=O)OC(C)(C)C)cc1`
Given back: 6.02

Asked: Look up and state reported pIC50 for `CC(C)(C)OC(=O)N1CSC[C@H]1C(=O)N[C@@H](CSCC1CCCCC1)C(=O)NCc1ccc(Oc2ccccc2)cc1`
Given back: 5.77

Asked: Look up and state reported pIC50 for `CC(C)COC(=O)N1CSC[C@H]1C(=O)N[C@@H](CSCC1CCCCC1)C(=O)NCc1ccc(Oc2ccccc2)cc1`
Given back: 5.92

1. CC(C)(C)OC(=O)N1CSC[C@H]1C(=O)N[C@@H](CSCC1CCCCC1)C(=O)NCc1ccc(OCc2ccccc2)cc1
2. COCC(=O)N1CSC[C@H]1C(=O)N[C@@H](CSCC1CCCCC1)C(=O)NCc1ccc(Oc2ccccc2)cc1
3. C=CCOC(=O)N1CSC[C@H]1C(=O)N[C@@H](CSCC1CCCCC1)C(=O)NCc1ccc(Oc2ccccc2)cc1
Asked: Please list the entries, largest pIC50 first. Output spec: labels arranged per the requested ranking.
Given back: 3, 2, 1
